Molecular target: T1, human amylin 3 receptor (human, UniProt P30988 25-474; O60896 24-148)
T1 sequence (looked up) 1: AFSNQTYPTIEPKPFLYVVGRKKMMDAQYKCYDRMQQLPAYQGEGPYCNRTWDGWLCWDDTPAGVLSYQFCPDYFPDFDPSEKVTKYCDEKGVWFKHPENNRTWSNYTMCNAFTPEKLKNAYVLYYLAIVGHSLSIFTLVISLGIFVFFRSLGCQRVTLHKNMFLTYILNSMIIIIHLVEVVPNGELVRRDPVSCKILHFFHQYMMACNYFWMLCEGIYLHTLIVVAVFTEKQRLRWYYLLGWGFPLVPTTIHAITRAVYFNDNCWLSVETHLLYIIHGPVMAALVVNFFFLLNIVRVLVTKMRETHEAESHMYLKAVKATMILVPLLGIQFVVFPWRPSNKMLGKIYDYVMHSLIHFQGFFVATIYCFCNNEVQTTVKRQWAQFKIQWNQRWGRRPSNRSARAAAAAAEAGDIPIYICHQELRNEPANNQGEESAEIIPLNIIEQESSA
T1 sequence (looked up) 2: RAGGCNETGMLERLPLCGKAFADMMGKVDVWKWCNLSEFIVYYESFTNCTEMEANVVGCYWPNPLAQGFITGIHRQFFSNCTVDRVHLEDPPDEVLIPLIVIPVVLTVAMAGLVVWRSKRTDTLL
Assay: cell-based or functional assay
Starred links: 1 amine or outer side, 2 acyl side, 3 side chain; linkers in the order of their positions; H or OH if unused. Positions of bridges follow the written chain, without caps; N, C: chain ends. Non-standard residues stand in square brackets, D forms with d. Groups on a side chain read outwards from the residue. Primed or numbered codes have the meaning given here. No end group written: not given here. *: point of attachment. dpeg″ = —[CO(CH2)O(CH2)2O(CH2)NH]— spacer unit, O=C(COCCOCN[*:1])[*:2]; C20 diacid = O=C(O)CCCCCCCCCCCCCCCCCCC(=O)*; C18 diacid = O=C(O)CCCCCCCCCCCCCCCCC(=O)*; γGlu = O=C(O)[C@H](CCC(=O)[*:2])N[*:1]
Please mark criterion met if the recorded pEC50 (cAMP accumulation), 4% HSA is equal to or greater than 8 pEC50, and criterion not met if it falls below.

Given SCNTSTCATQRLANEKHKSSNNFGPILPPTKVGSETY (L-Lys 16 acylated: K*(γGlu-dpeg-dpeg-(γGlu)4-CO(CH2)14CH3); disulfide bridge Cys2-Cys7; C-terminal amide) [Compound A5] , state whether its pEC50 (cAMP accumulation), 4% HSA is at least 8 pEC50.
criterion met

// same read-out, input: SCNTSTCATQRLAN[dK]([γGlu-γGlu-dpeg″-γGlu-C20 diacid])LHKSSNNFGPILPPTKVGSETY-NH2 (disulfide 2-7) [Compound A100]
criterion not met

Note, next up: K([dpeg″-dpeg″-γGlu-C18 diacid])CNTSTCATQRLANELHKSSNNFGPILPPTKVGSETY-NH2 (disulfide 2-7) [Compound A113]
criterion met

Then what about the binder KCNTATCATQRLANFLVHSSNNFGPILPPTNVGSNTY-NH2 (disulfide 2-7; ends not checked) [Pramlintide] ?
criterion met
